List of IC50 values.
test system: 857933-349-R-J2-PDC complex spheroids, viability; experiment: Anticancer human tumor 857933-349-R-J2-PDC patient-derived colon adenocarcinoma cell line growth inhibition [GQUAD]; details: curve of first compound; second compound 0.316 µM;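 note: spheroids exposed to compounds for one week before readout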
measurement name: IC50

compound: Cc1cccc(N(C)C(=O)C2C(O)CCN2c2nc(C)cc(C(F)(F)F)c2C#N)c1 (stereo unspecified) + CN(C)c1ccc(Nc2c3ccc(NC(=O)CCN4CCCC4)cc3nc3cc(NC(=O)CCN4CCCC4)ccc23)cc1
measurement name: IC50
result: > 10000 nM
--
compound: CC(C)n1c(=O)n(C)c2cnc3cc(F)c(-c4ccc(OCCCN5CCCCC5)nc4)cc3c21 + CN(C)c1ccc(Nc2c3ccc(NC(=O)CCN4CCCC4)cc3nc3cc(NC(=O)CCN4CCCC4)ccc23)cc1
measurement name: IC50
result: > 10000 nM
--
compound: O=C(c1cc(Cc2n[nH]c(=O)c3ccccc23)ccc1F)N1CCN(C(=O)C2CC2)CC1 + Cc1[nH]c2ccc(F)cc2c1-c1nc2c3cccnc3c3ncccc3c2[nH]1
measurement name: IC50
result: > 10000 nM
--
compound: C#Cc1c(F)ccc2cc(O)cc(-c3ncc4c(N5CC6CCC(C5)N6)nc(OCC56CCCN5CC(F)C6)nc4c3F)c12 (stereo unspecified) + Cc1cnc(CNC(=O)c2c(=O)c3ccc(N4CCCN(C)CC4)nc3n3c2sc2ccccc23)cn1
measurement name: IC50
result: < 31.6 nM
--
compound: CC1COCCN1c1cc(C2(O)CC3CCC(C2)O3)c2cnn(-c3ccn[nH]3)c2n1 (stereo unspecified) + CN(C)c1ccc(Nc2c3ccc(NC(=O)CCN4CCCC4)cc3nc3cc(NC(=O)CCN4CCCC4)ccc23)cc1
measurement name: IC50
result: > 10000 nM
--
compound: Cc1[nH]c2ccccc2c1CCNCc1ccc(/C=C/C(=O)NO)cc1 + Cc1[nH]c2ccc(F)cc2c1-c1nc2c3cccnc3c3ncccc3c2[nH]1
measurement name: IC50
result: > 316 nM
--
compound: CC(C)(O)C1CCC(Nc2ccc3ncc(-c4cccc(C(F)(F)F)c4)n3n2)CC1 (stereo unspecified) + CN(C)c1ccc(Nc2c3ccc(NC(=O)CCN4CCCC4)cc3nc3cc(NC(=O)CCN4CCCC4)ccc23)cc1
measurement name: IC50
result: 691 nM
--
compound: CC[C@@]1(O)C(=O)OCc2c1cc1n(c2=O)Cc2cc3c(CN(C)C)c(O)ccc3nc2-1 + Cc1[nH]c2ccc(F)cc2c1-c1nc2c3cccnc3c3ncccc3c2[nH]1
measurement name: IC50
result: 144 nM
--
compound: CC1COCCN1c1cc(-c2ccnn2C)c2ccnc(-c3ccn[nH]3)c2n1 (stereo unspecified) + Cc1cnc(CNC(=O)c2c(=O)c3ccc(N4CCCN(C)CC4)nc3n3c2sc2ccccc23)cn1
measurement name: IC50
result: < 31.6 nM
--
compound: Cn1ncnc1[C@H]1c2n[nH]c(=O)c3cc(F)cc(c23)N[C@@H]1c1ccc(F)cc1 + CN(C)c1ccc(Nc2c3ccc(NC(=O)CCN4CCCC4)cc3nc3cc(NC(=O)CCN4CCCC4)ccc23)cc1
measurement name: IC50
result: > 316 nM
--
compound: CC1COCCN1c1cc(-c2ccnn2C)c2ccnc(-c3ccn[nH]3)c2n1 (stereo unspecified) + Cc1[nH]c2ccc(F)cc2c1-c1nc2c3cccnc3c3ncccc3c2[nH]1
measurement name: IC50
result: 327 nM
